Data provenance is paper PMC4065498.

subject of test: native CES1 in THP1 lysates (Homo sapiens, UniProt P23141)
Sequence (P23141 18-567): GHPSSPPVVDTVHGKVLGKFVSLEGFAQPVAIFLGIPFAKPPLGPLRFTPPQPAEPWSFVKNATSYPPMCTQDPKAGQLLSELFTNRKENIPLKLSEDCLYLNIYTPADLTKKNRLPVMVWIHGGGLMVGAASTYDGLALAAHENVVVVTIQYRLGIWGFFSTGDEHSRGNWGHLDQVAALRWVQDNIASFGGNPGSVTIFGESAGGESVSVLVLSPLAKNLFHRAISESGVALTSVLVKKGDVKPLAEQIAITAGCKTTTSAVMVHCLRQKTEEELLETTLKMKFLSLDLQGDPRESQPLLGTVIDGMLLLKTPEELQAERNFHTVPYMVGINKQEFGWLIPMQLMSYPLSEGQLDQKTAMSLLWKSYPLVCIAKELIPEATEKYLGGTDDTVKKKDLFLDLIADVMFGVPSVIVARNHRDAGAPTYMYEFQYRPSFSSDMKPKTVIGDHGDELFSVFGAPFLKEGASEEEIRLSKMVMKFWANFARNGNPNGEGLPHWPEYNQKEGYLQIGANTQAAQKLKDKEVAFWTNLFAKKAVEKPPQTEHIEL
experimental details: Activity-based protein profiling with FP-biotin in THP1 lysate: CES1
metric name: IC50

Inquiry: Look up IC50: O=C1C(=O)c2sccc2-c2ccsc21 [S-3030, thieno[3,2-e][1]benzothiophene-4,5-dione]
Reply text: ~23 µM
